# Assay target: Human Recombinant ROCK-II Enzyme (ROKα/ROCK-II, aa 11-552) (Homo sapiens, UniProt O75116)
# Construct: (ROKα/ROCK-II, (aa 11-552), human active)
# Sequence (O75116 11-552): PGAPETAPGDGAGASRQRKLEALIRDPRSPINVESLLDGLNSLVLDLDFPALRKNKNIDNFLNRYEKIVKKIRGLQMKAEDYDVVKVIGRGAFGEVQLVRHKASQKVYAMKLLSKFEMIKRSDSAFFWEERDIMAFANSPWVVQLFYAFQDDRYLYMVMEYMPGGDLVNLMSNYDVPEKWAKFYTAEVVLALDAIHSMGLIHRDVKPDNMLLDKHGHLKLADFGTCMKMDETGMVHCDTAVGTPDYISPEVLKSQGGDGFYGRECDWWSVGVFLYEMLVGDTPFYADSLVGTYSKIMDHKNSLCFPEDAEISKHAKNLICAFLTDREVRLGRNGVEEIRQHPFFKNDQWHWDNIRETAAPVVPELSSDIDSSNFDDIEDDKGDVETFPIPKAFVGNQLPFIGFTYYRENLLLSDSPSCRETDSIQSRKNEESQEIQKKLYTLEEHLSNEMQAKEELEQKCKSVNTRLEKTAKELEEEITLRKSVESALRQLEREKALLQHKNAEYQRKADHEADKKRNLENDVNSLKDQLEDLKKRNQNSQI
# Protocol description: ROCK-II inhibition, fluorescence polarization assay (IMAP ROCK II kit)
# Stated conditions: substrate 200 nM, ATP 10 μM, 60 min at 23° C., read-out: Enzyme Inhibition Constants (IC50) against Human Recombinant ROCK-II Enzyme
Where a name gives a salt, the structure may show the parent alone.
Measure: IC50 (nM)

> print(dat)
                                   compound  measure  uom  observed.result
1  CN1CCCN(c2nc(-c3ccnc(N)c3)cnc2N)CC1 [Example 8, trihydrochloride]     IC50   nM               53
2  CN1CCCN(c2nc(-c3ccc4[nH]ncc4c3)cnc2N)CC1 [Example 7, dihydrochloride]     IC50   nM             0.95
3  Nc1ncc(-c2ccncc2)nc1N(CCO)CCO [Example 9]     IC50   nM               22
4  CN1CCCC(Oc2nc(-c3ccncc3)cnc2N)C1 (stereo not drawn) [Example 21]     IC50   nM              4.2
5  CN1CCCN(c2nc(-c3ccncc3)cnc2N)CC1 [Example 1]     IC50   nM                3

1 = CN(C)c1ncc(-c2ccncc2)nc1NC1CCCNC1 (stereo not drawn) [Example 34]
2 = CN1CCCN(c2nc(-c3ccnc4[nH]ncc34)cnc2N(C)C)CC1 [Example 33, dihydrochloride]
3 = CN1CCCN(c2nc(-c3ccncc3)cnc2N(C)C)CC1 [Example 32, hydrochloride]
4 = Nc1ncc(-c2ccncc2)nc1NC1CCNCC1 [Example 16]
Req: Task for the reader: rank each entry by its IC50, from the minimum upward. Field: ranking. Enter the labels in the order requested.
Resp: 2, 4, 3, 1
(2: 0.54 nM, 4: 0.82 nM, 3: 1.7 nM, 1: 3.1 nM)
